B1: tRNA (parent)
chain: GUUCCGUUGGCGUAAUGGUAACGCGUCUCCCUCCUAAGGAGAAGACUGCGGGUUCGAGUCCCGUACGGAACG

Variants of: B1
Method Notes: yeast fitness relative to wild type (ratio to wild type); higher = fitter; tRNA-Arg(CCU), competitive growth, 37 C, YPD
This sample holds only a part of the variants without activity.
Measurement Kind: yeast fitness

Recorded result, GUUGCGUCGGCGUAAUGGUAACGCGUCUCCCUCCUAAGGAGAAGACUGCGGGUUCGAGUCCCGUACGGAACG [C4G U8C] , yeast fitness: 0.89

Further cases:
Recorded result, GUUUCGUUGGCGUAAUGGUAACGAGUCUCCCUCCUAAGGAGAAGACUGCGGGUUCGAGUCCCGUACGGUACG [C4U C24A A69U] , yeast fitness: 0.601

Recorded result, GUUCCGUUGGCGUAAGGGUAACGCGUCUCGCUCCUAAGGAGAAGACUGCGGGUUGGAGUCCCGUACGGAACG [U16G C30G C55G] , yeast fitness: ≤ 0.5

Recorded result, GUUCCGUUGGCGUCAUGGGAACGCGUCUCCGUUCUAAGGAGGAGACUGCGGGUUCGAGUCCCGCGCGGCACG [A14C U19G C31G C33U A42G U64C A65G A69C] , yeast fitness: ≤ 0.5

Recorded result, GUUCCGUUGGUGUAAUGGUAACGCGUCUCCCUCCUAAGGAGAAGGCUGCGGGCUCGAGUCCCGUACGGAACG [C11U A45G U53C] , yeast fitness: 0.637

Recorded result, GUUCCGUUGGCGUAAUGGUAACGCGUCUCCCUCCUAAGGAGAAGACUCCGGGUUCGAGUCCCGUACGUAACG [G48C G68U] , yeast fitness: 0.771

Recorded result, GUUCUGUUGGCGUAAUGGUAACGCGUCUCCCUCCUAUGGAGUAGACUGCGGGUUCGAGUCCCGUACAGAACG [C5U A37U A42U G67A] , yeast fitness: ≤ 0.5

Recorded result, GUUCCGUUGGCGUAAUGGUAACGCGUCUCGCUCCUAAGGAGAAGACUGCGGGUUCGUGUCCUGUACGGAACG [C30G A57U C62U] , yeast fitness: ≤ 0.5

Origin of the recorded values: the RNAGym collection of RNA variant scans (doi:10.1126/science.aae0568)
